Give IC50 for every item shown.
# test-name: Cytotoxicity against human HCT116/VM46 cells assessed as reduction in cell viability after 72 hrs by phosphatase assay
# Format: cell-based
# applied-conditions: HCT-116/VM46, 72 h
Kindly format the answer as number then unit.

Query :: Which IC50 value is on record for `CC[C@]1(NC(=O)c2ccc3cc(OC)ccc3c2)C[C@H]2CN(CCc3c([nH]c4ccccc34)[C@@](C(=O)OC)(c3cc4c(cc3OC)N(C)[C@H]3[C@@](O)(C(=O)OC)[C@H](OC(C)=O)[C@]5(CC)C=CCN6CC[C@]43[C@@H]65)C2)C1` ?
Result :: 20 nM

Query :: Next compound: `CCCCCC(=O)N[C@@]1(CC)C[C@H]2CN(CCc3c([nH]c4ccccc34)[C@@](C(=O)OC)(c3cc4c(cc3OC)N(C)[C@H]3[C@@](O)(C(=O)OC)[C@H](OC(C)=O)[C@]5(CC)C=CCN6CC[C@]43[C@@H]65)C2)C1`
Result :: 450 nM

* * *

Give pIC50 for every item shown.
# Test system: LS174T
# test-name: Antiproliferative activity against human LS174T cells after 72 hrs by phosphatase assay
# Format: functional, cell-based
In plain terms, pIC50 is the concentration in mol/L turned into minus its base-10 logarithm.

Query :: Which pIC50 value is on record for `CC(=O)O[C@H]1C(=O)[C@@]2(C)[C@H]([C@H](OC(=O)c3ccccc3)[C@]3(O)C[C@H](OC(=O)[C@H](O)[C@@H](NC(=O)c4ccccc4)c4ccccc4)C(C)=C1C3(C)C)[C@]1(OC(C)=O)CO[C@@H]1C[C@@H]2O` ?
Result :: 8.02

Query :: Next molecule: `CC[C@]1(NC(=O)c2ccc3c(c2)CCCO3)C[C@H]2CN(CCc3c([nH]c4ccccc34)[C@@](C(=O)OC)(c3cc4c(cc3OC)N(C)[C@H]3[C@@](O)(C(=O)OC)[C@H](OC(C)=O)[C@]5(CC)C=CCN6CC[C@]43[C@@H]65)C2)C1`
Result :: 8.62

Query :: Next molecule: `CC[C@]1(NC(=O)c2ccc3c(c2)CCCC3)C[C@H]2CN(CCc3c([nH]c4ccccc34)[C@@](C(=O)OC)(c3cc4c(cc3OC)N(C)[C@H]3[C@@](O)(C(=O)OC)[C@H](OC(C)=O)[C@]5(CC)C=CCN6CC[C@]43[C@@H]65)C2)C1`
Result :: 8.18

* * *

# test-name: Cytotoxicity against human HCT116/VM46 cells assessed as reduction in cell viability after 72 hrs by phosphatase assay
# Type: cell-based
# applied-conditions: HCT-116/VM46, 72 h
property-measured: IC50 (nM)
Reply with just the number (in nM).

Query :: Which IC50 value is on record for `CC[C@]1(NC(=O)C2CCC2)C[C@H]2CN(CCc3c([nH]c4ccccc34)[C@@](C(=O)OC)(c3cc4c(cc3OC)N(C)[C@H]3[C@@](O)(C(=O)OC)[C@H](OC(C)=O)[C@]5(CC)C=CCN6CC[C@]43[C@@H]65)C2)C1` ?
Result :: 85

Query :: Next compound: `CCCc1ccc(C(=O)N[C@@]2(CC)C[C@H]3CN(CCc4c([nH]c5ccccc45)[C@@](C(=O)OC)(c4cc5c(cc4OC)N(C)[C@H]4[C@@](O)(C(=O)OC)[C@H](OC(C)=O)[C@]6(CC)C=CCN7CC[C@]54[C@@H]76)C3)C2)cc1`
Result :: 35

Query :: Next compound: `CC[C@]1(NC(=O)c2ccc3c(c2)CCC3)C[C@H]2CN(CCc3c([nH]c4ccccc34)[C@@](C(=O)OC)(c3cc4c(cc3OC)N(C)[C@H]3[C@@](O)(C(=O)OC)[C@H](OC(C)=O)[C@]5(CC)C=CCN6CC[C@]43[C@@H]65)C2)C1`
Result :: 11

* * *

# test-name: Cytotoxicity against human HCT116/VM46 cells assessed as reduction in cell viability after 72 hrs by phosphatase assay
# Format: cell-based
# applied-conditions: HCT-116/VM46, 72 h
Give pIC50 for every item shown.
In plain terms, pIC50 is the concentration in mol/L turned into minus its base-10 logarithm.

Query :: Which pIC50 value is on record for `CC[C@]1(NS(=O)(=O)c2ccccc2)C[C@H]2CN(CCc3c([nH]c4ccccc34)[C@@](C(=O)OC)(c3cc4c(cc3OC)N(C)[C@H]3[C@@](O)(C(=O)OC)[C@H](OC(C)=O)[C@]5(CC)C=CCN6CC[C@]43[C@@H]65)C2)C1` ?
Result :: 6.17

Query :: Next compound: CCC(C)c1ccc(C(=O)N[C@@]2(CC)C[C@H]3CN(CCc4c([nH]c5ccccc45)[C@@](C(=O)OC)(c4cc5c(cc4OC)N(C)[C@H]4[C@@](O)(C(=O)OC)[C@H](OC(C)=O)[C@]6(CC)C=CCN7CC[C@]54[C@@H]76)C3)C2)cc1 (some centres undefined)
Result :: 7.19

Query :: Next compound: `CC[C@]1(NC(=O)c2ccc(N(C)C)cc2)C[C@H]2CN(CCc3c([nH]c4ccccc34)[C@@](C(=O)OC)(c3cc4c(cc3OC)N(C)[C@H]3[C@@](O)(C(=O)OC)[C@H](OC(C)=O)[C@]5(CC)C=CCN6CC[C@]43[C@@H]65)C2)C1`
Result :: 8.39

Query :: Next compound: `CCc1cc(CC)cc(C(=O)N[C@@]2(CC)C[C@H]3CN(CCc4c([nH]c5ccccc45)[C@@](C(=O)OC)(c4cc5c(cc4OC)N(C)[C@H]4[C@@](O)(C(=O)OC)[C@H](OC(C)=O)[C@]6(CC)C=CCN7CC[C@]54[C@@H]76)C3)C2)c1`
Result :: 7.18

* * *

# test-name: Cytotoxicity against human HCT116/VM46 cells assessed as reduction in cell viability after 72 hrs by phosphatase assay
# Assay type: cell-based
# applied-conditions: HCT-116/VM46, 72 h
property-measured: IC50 (nM)
Reply with just the number (in nM).

Query :: Which IC50 value is on record for `CC[C@]1(NC(=O)c2ccc3scnc3c2)C[C@H]2CN(CCc3c([nH]c4ccccc34)[C@@](C(=O)OC)(c3cc4c(cc3OC)N(C)[C@H]3[C@@](O)(C(=O)OC)[C@H](OC(C)=O)[C@]5(CC)C=CCN6CC[C@]43[C@@H]65)C2)C1` ?
Result :: 25

Query :: Next molecule: `CC[C@]1(NC(=O)Cc2ccccc2)C[C@H]2CN(CCc3c([nH]c4ccccc34)[C@@](C(=O)OC)(c3cc4c(cc3OC)N(C)[C@H]3[C@@](O)(C(=O)OC)[C@H](OC(C)=O)[C@]5(CC)C=CCN6CC[C@]43[C@@H]65)C2)C1`
Result :: 550

Query :: Next molecule: `CCSc1ccc(C(=O)N[C@@]2(CC)C[C@H]3CN(CCc4c([nH]c5ccccc45)[C@@](C(=O)OC)(c4cc5c(cc4OC)N(C)[C@H]4[C@@](O)(C(=O)OC)[C@H](OC(C)=O)[C@]6(CC)C=CCN7CC[C@]54[C@@H]76)C3)C2)cc1`
Result :: 35

Query :: Next molecule: `CC[C@]1(NC(=O)c2ccc(C)c(N)c2)C[C@H]2CN(CCc3c([nH]c4ccccc34)[C@@](C(=O)OC)(c3cc4c(cc3OC)N(C)[C@H]3[C@@](O)(C(=O)OC)[C@H](OC(C)=O)[C@]5(CC)C=CCN6CC[C@]43[C@@H]65)C2)C1`
Result :: 25

Query :: Next molecule: `CC[C@]1(NC(=O)c2cncs2)C[C@H]2CN(CCc3c([nH]c4ccccc34)[C@@](C(=O)OC)(c3cc4c(cc3OC)N(C)[C@H]3[C@@](O)(C(=O)OC)[C@H](OC(C)=O)[C@]5(CC)C=CCN6CC[C@]43[C@@H]65)C2)C1`
Result :: 45

Query :: Next molecule: `CC[C@]1(NC(=O)c2ccc(S(=O)(=O)F)cc2)C[C@H]2CN(CCc3c([nH]c4ccccc34)[C@@](C(=O)OC)(c3cc4c(cc3OC)N(C)[C@H]3[C@@](O)(C(=O)OC)[C@H](OC(C)=O)[C@]5(CC)C=CCN6CC[C@]43[C@@H]65)C2)C1`
Result :: 310

Query :: Next molecule: `CC[C@]1(NC(=O)c2ccc3ncccc3c2)C[C@H]2CN(CCc3c([nH]c4ccccc34)[C@@](C(=O)OC)(c3cc4c(cc3OC)N(C)[C@H]3[C@@](O)(C(=O)OC)[C@H](OC(C)=O)[C@]5(CC)C=CCN6CC[C@]43[C@@H]65)C2)C1`
Result :: 4.9

Query :: Next molecule: `CC[C@]1(NC(=O)c2ccc3nccnc3c2)C[C@H]2CN(CCc3c([nH]c4ccccc34)[C@@](C(=O)OC)(c3cc4c(cc3OC)N(C)[C@H]3[C@@](O)(C(=O)OC)[C@H](OC(C)=O)[C@]5(CC)C=CCN6CC[C@]43[C@@H]65)C2)C1`
Result :: 7.5
